Each recorded value in this set is attributed to patent US9776965B2.

Target: 11b-HSD1 (Homo sapiens, UniProt P28845)
Sequence (P28845 whole entry): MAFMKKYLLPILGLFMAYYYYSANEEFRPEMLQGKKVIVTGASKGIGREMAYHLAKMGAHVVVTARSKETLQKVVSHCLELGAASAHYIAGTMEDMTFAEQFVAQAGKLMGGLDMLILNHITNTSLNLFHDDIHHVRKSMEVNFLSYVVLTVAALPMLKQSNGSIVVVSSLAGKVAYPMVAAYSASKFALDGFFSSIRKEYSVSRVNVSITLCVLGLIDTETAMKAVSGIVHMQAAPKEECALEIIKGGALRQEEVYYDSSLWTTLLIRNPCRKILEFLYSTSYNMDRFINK
Assay: Enzymatic assay, 11b-HSD1 dependent conversion of cortisone into cortisol (reductase activity)
Conditions: recombinant protein, 2 μM cortisone, 45 min at 37 C; read-out: [C1] HSD1-prot Reduct Score
Assay metric: IC50

Consider the following illustrative entries.
O=C1[C@@H](Cc2c(Cl)cccc2Cl)CCN1[C@H](CO)c1ccccc1
> 10 µM
C[C@H](c1ccccc1)N1CC[C@@H](Cc2ccccc2Cl)C1=O
1 to 10 µM
COc1ccc(CC[C@H]2CCN([C@@H](C)c3ccccc3)C2=O)cc1
> 10 µM

Let's switch to this compound now.
Quick one: IC50 for O=C1C(Cc2ccccc2Cl)CCN1Cc1ccccc1 (stereo not shown) ? 1 to 10 µM

====

Target: 11b-HSD1 (Mus musculus)
Construct: Fibroblasts were differentiated into adipocytes; endogenous in cells
Sequence (P50172 whole entry): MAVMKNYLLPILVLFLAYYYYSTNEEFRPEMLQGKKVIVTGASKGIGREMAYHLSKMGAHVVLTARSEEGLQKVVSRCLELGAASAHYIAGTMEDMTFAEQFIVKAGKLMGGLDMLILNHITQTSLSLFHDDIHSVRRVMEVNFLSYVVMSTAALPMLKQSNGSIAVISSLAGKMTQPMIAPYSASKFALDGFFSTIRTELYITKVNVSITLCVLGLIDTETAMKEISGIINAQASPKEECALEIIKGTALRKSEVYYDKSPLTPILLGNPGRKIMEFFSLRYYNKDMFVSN
Assay: Cellular assay, 11b-HSD1 activity in differentiated 3T3-L1 cells
Conditions: 4 hour pre-incubation, read-out: [C2] HSD1 cellular 3T3-L1 Score
Protocol: The effects on 11b-HSD1 activity was measured in differentiated 3T3-L1 cells and rat hepatocytes. […] Following a 4 hour pre-incubation with test compound, 0.5 μCi ^3H-cortisone or dehydrocorticosterone, was added to the cultures. One hour later, the medium was extracted on Extrelut^3-columns with 15 ml diethyl ether and the extract was analysed by HPLC as described above. […]
pIC50: −log10 of the molar value.
Assay metric: pIC50

Consider the following illustrative entries.
O=C1C(Cc2c(Cl)cccc2Cl)CCN1[C@H](Cc1ccccc1)c1ccccc1 (single isomer, unassigned) [Compound 103]
< 5.00
C[C@@H](c1ccccc1)[C@@H]1CCN([C@@H](C)c2ccccc2)C1=O [Compound 158]
> 6.00
COc1ccccc1C[C@H]1CCN([C@H](C)c2ccccc2)C1=O [Compound 39]
5.00 to 6.00

Let's switch to this compound now.
Quick one: pIC50 for COc1ccc(C[C@H]2CCN([C@@H](C)c3ccccc3)C2=O)cc1 [Compound 21] ? > 6.00

====

Target: 11b-HSD1 (Mus musculus)
Construct: Fibroblasts were differentiated into adipocytes; endogenous in cells
Test: Cellular assay, 11b-HSD1 activity in differentiated 3T3-L1 cells
Conditions: 4 hour pre-incubation, read-out: [C2] HSD1 cellular 3T3-L1 Score
pIC50: −log10 of the molar value.
Assay metric: pIC50

Consider the following illustrative entries.
O=C1C(Cc2ccc(F)cc2Cl)CCN1CCc1ccccc1 (stereo not drawn) [Compound 85]
< 5.00
O=C1C(Cc2cc3c(cc2Cl)OCO3)CCN1CCc1ccccc1 (stereo not drawn) [Compound 86]
> 6.00
Cc1ccc(CC2CCN(CCc3ccccc3)C2=O)cc1 (stereo not drawn) [Compound 35]
> 6.00
Cc1ccccc1C[C@@H]1CCN([C@H](C)c2ccccc2)C1=O [Compound 62]
5.00 to 6.00
COc1ccccc1CC1CCN(CCc2ccccc2)C1=O (stereo not drawn) [Compound 33]
> 6.00
COc1ccccc1C[C@@H]1CCN([C@H](C)c2ccccc2)C1=O [Compound 38]
5.00 to 6.00

Quick one: pIC50 for COc1cccc(CC2CCN(CCc3ccccc3)C2=O)c1 (stereo not drawn) [Compound 24] ? < 5.00

Quick one: pIC50 for C[C@H](c1ccccc1)N1CC[C@H](Cc2ccccc2)C1=O [Compound 36] ? 5.00 to 6.00

Quick one: pIC50 for COc1ccc(CC[C@H]2CCN([C@@H](C)c3ccccc3)C2=O)cc1 [Compound 133] ? 5.00 to 6.00

Quick one: pIC50 for Cc1ccc([C@H](O)[C@H]2CCN([C@@H](C)c3ccccc3)C2=O)c(C)c1 [Compound 91] ? > 6.00

Quick one: pIC50 for Cc1ccccc1CC1(Cc2ccccc2)CCN([C@@H](C)c2ccccc2)C1=O (mixture of isomers) [Compound 147] ? < 5.00

Quick one: pIC50 for Cc1ccccc1CC[C@@H]1CCN([C@@H](C)c2ccccc2)C1=O [Compound 127] ? 5.00 to 6.00

====

Target: 11b-HSD1 (Homo sapiens)
Assay: Enzymatic assay, 11b-HSD1 dependent conversion of cortisone into cortisol (reductase activity)
Conditions: recombinant protein, 2 μM cortisone, 45 min at 37 C; read-out: [C1] HSD1-prot Reduct Score
// values below are reported IC50

Consider the following illustrative entries.
Cc1ccccc1C(C)[C@H]1CCN([C@@H](C)c2ccccc2)C1=O (some centres unmarked)
< 1 µM
O=C1C(Cc2ccccc2Cl)CCN1CCCc1ccccc1 (centres unmarked)
1 to 10 µM
Cc1ccc(C[C@@H]2CCN([C@@H](C)c3ccccc3)C2=O)cc1
< 1 µM
O=C1C(Cc2ccc(F)cc2Cl)CCN1CCc1ccccc1 (centres unmarked)
1 to 10 µM
COc1ccc(CC[C@H]2CCN([C@@H](C)c3ccccc3)C2=O)cc1OC
> 10 µM
Cc1cccc(C[C@@H]2CCN([C@@H](C)c3ccccc3)C2=O)c1
> 10 µM

Quick one: IC50 for CC[C@@H](C[C@H]1CCN([C@@H](C)c2ccccc2)C1=O)c1ccccc1 ? < 1 µM

Quick one: IC50 for Cc1cccc(C[C@H]2CCN([C@@H](C)c3ccccc3)C2=O)c1 ? 1 to 10 µM

Quick one: IC50 for O=C1C(Cc2ccccc2)CCN1CCc1ccccc1 (centres unmarked) ? > 10 µM

Quick one: IC50 for C[C@H](c1ccccc1)[C@@H]1CCN([C@@H](C)c2ccccc2)C1=O ? 1 to 10 µM

Quick one: IC50 for CO[C@H](C[C@@H]1CCN([C@@H](C)c2ccccc2)C1=O)c1ccccc1 ? 1 to 10 µM

Quick one: IC50 for COc1cc(C[C@@H]2CCN([C@@H](C)c3ccccc3)C2=O)ccc1OCc1ccccc1 ? > 10 µM

Quick one: IC50 for N#Cc1ccccc1CC1CCN(CCc2ccccc2)C1=O (centres unmarked) ? 1 to 10 µM

Quick one: IC50 for C[C@@H](c1ccccc1)N1CC[C@H](Cc2ccc3c(c2)OCO3)C1=O ? 1 to 10 µM

====

Target: 11b-HSD1 (Homo sapiens)
Assay: Enzymatic assay, 11b-HSD1 dependent conversion of cortisone into cortisol (reductase activity)
Details: recombinant protein, 2 μM cortisone, 45 min at 37 C; read-out: [C1] HSD1-prot Reduct Score
pIC50: −log10 of the molar value.
Assay metric: pIC50

Consider the following illustrative entries.
C[C@H](c1ccccc1)N1CC[C@@H](Cc2c(Cl)cccc2Cl)C1=O
< 5.00
C[C@@H](c1ccccc1)N1CC[C@H](Cc2ccccc2)C1=O
5.00 to 6.00
COc1ccccc1C[C@H]1CCN([C@@H](C)c2ccccc2)C1=O
5.00 to 6.00
C[C@@H](c1ccccc1)N1CCC(CCc2cccc3ccccc23)(CCc2cccc3ccccc23)C1=O
< 5.00
Cc1ccccc1CC1CCCN(CCc2ccccc2)C1=O (stereo not drawn)
< 5.00

Let's switch to this molecule now.
Quick one: pIC50 for C[C@@H](c1ccccc1)N1CC[C@H](CCc2cccc3ccccc23)C1=O ? > 6.00
